target-or-system: COX-1 (Ovis aries)
method-summary: In vitro COX-1 inhibition, fluorescent inhibitor screening assay kit
study-conditions: conc 1 (uM)
property: COX1 %inh (%)

>  <structure-notation>
O=C(Cn1cnc2c(cnn2-c2ccccc2)c1=O)N(c1ccccc1)c1ccccc1

>  <target-or-system>
COX-1 (Ovis aries)

>  <unit-string>
%

>  <measurement>
15

$$$$

A: CC(=NO)c1ccc(NC(=O)Cn2cnc3c(cnn3-c3ccccc3)c2=O)cc1
B: O=C(Cn1cnc2c(cnn2-c2ccccc2)c1=O)Nc1ccc2ccccc2c1
C: O=C(Cn1cnc2c(cnn2-c2ccccc2)c1=O)Nc1ccc([N+](=O)[O-])cc1
Order the items by recorded COX1 %inh; the first position goes to the largest value. Answer by naming the labels in the order asked.
B, A, C

----------
target-or-system: human recombinant COX-2 (Homo sapiens)
Sequence (P35354 18-604): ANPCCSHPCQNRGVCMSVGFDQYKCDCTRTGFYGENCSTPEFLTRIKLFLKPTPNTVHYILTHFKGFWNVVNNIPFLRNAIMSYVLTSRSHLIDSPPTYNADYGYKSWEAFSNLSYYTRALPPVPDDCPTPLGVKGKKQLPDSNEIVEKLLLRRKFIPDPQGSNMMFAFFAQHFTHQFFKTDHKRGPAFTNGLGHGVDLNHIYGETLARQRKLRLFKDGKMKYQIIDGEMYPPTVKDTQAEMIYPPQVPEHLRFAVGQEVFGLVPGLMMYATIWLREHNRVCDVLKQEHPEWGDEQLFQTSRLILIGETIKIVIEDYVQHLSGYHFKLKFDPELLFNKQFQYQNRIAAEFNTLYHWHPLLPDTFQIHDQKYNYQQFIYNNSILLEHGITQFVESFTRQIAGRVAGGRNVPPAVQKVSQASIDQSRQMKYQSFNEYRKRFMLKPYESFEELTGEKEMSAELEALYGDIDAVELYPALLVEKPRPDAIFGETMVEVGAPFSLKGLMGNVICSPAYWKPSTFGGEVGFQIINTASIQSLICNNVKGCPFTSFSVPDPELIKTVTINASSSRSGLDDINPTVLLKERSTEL
method-summary: In vitro COX-2 inhibition, fluorescent inhibitor screening assay kit
study-conditions: conc 0.1 (uM)
property: COX2 %inh (%)

>  <structure-notation>
O=C(Cn1cnc2c(cnn2-c2ccccc2)c1=O)Nc1ccc([N+](=O)[O-])cc1

>  <unit-string>
%

>  <COX2 %inh>
-301

$$$$

a: O=C(Cn1cnc2c(cnn2-c2ccccc2)c1=O)N(c1ccccc1)c1ccccc1
b: CC(=NO)c1ccc(NC(=O)Cn2cnc3c(cnn3-c3ccccc3)c2=O)cc1
// compare measured COX2 %inh between a and b ; output the lower one Mark your answer with the label of the selected entry.
b
(b: -448%, a: -266%)

----------
Test system: carrageenan-induced paw edema
method-summary: In vivo carrageenan-induced paw edema
study-conditions: 2 h; 50 mg/kg oral; mice
Percentage of inhibition of carrageenan-induced paw edema for assorted molecules
Your answer should be a plain number; it is taken to be in %.

>  <molecule>
Cc1ccc(-c2cc(C(F)(F)F)nn2-c2ccc(S(N)(=O)=O)cc2)cc1 [Celecoxib, celecoxib, reference compound]

>  <unit-string>
%

>  <measurement>
44.88

$$$$
>  <molecule>
O=C(Cn1cnc2c(cnn2-c2ccccc2)c1=O)N(c1ccccc1)c1ccccc1

>  <unit-string>
%

>  <measurement>
44.88

$$$$
>  <molecule>
O=C(Cn1cnc2c(cnn2-c2ccccc2)c1=O)Nc1ccc2ccccc2c1

>  <unit-string>
%

>  <measurement>
50.13

$$$$
>  <molecule>
COc1ccc2c(c1)c(CC(=O)O)c(C)n2C(=O)c1ccc(Cl)cc1 [Indomethacin, indomethacin, reference compound]

>  <unit-string>
%

>  <measurement>
29.13

$$$$

Supply Percentage of inhibition of carrageenan-induced paw edema value. Item: `O=C(Cn1cnc2c(cnn2-c2ccccc2)c1=O)Nc1ccc([N+](=O)[O-])cc1`
21.26

----------
target-or-system: COX-1 (Ovis aries)
Sequence (P05979 25-600): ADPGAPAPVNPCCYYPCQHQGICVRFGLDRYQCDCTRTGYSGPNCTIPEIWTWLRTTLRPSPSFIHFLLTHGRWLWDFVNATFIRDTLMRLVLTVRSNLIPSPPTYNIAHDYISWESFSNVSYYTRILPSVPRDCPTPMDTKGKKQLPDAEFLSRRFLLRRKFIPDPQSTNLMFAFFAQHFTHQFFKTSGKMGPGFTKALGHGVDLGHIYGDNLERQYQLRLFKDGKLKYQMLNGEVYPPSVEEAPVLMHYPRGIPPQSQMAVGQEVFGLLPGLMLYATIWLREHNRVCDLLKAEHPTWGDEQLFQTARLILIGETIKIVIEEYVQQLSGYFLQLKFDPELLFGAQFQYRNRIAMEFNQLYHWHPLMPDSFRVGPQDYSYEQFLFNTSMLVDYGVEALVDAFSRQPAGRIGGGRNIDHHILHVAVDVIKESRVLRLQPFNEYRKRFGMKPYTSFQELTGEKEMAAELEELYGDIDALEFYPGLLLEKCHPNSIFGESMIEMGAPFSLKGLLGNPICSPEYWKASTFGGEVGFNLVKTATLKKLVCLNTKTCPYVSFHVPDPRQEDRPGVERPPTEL
method-summary: In vitro COX-1 inhibition, fluorescent inhibitor screening assay kit
study-conditions: conc 100 (uM)
property: COX1 %inh (%)

>  <structure-notation>
O=C(Cn1cnc2c(cnn2-c2ccccc2)c1=O)N(c1ccccc1)c1ccccc1

>  <measurement>
74.9

$$$$
>  <structure-notation>
O=C(Cn1cnc2c(cnn2-c2ccccc2)c1=O)Nc1ccc([N+](=O)[O-])cc1

>  <measurement>
76

$$$$
>  <structure-notation>
CC(=NO)c1ccc(NC(=O)Cn2cnc3c(cnn3-c3ccccc3)c2=O)cc1

>  <measurement>
69.2

$$$$
>  <structure-notation>
O=C(Cn1cnc2c(cnn2-c2ccccc2)c1=O)Nc1ccc2ccccc2c1

>  <measurement>
80.1

$$$$

----------
target-or-system: human recombinant COX-2 (Homo sapiens)
method-summary: In vitro COX-2 inhibition, fluorescent inhibitor screening assay kit
study-conditions: conc 100 (uM)
property: COX2 %inh (%)

>  <structure-notation>
O=C(Cn1cnc2c(cnn2-c2ccccc2)c1=O)Nc1ccc([N+](=O)[O-])cc1

>  <target-or-system>
human recombinant COX-2 (Homo sapiens)

>  <COX2 %inh (%)>
76.6

$$$$
>  <structure-notation>
CC(=NO)c1ccc(NC(=O)Cn2cnc3c(cnn3-c3ccccc3)c2=O)cc1

>  <target-or-system>
human recombinant COX-2 (Homo sapiens)

>  <COX2 %inh (%)>
46.6

$$$$
>  <structure-notation>
O=C(Cn1cnc2c(cnn2-c2ccccc2)c1=O)N(c1ccccc1)c1ccccc1

>  <target-or-system>
human recombinant COX-2 (Homo sapiens)

>  <COX2 %inh (%)>
67.8

$$$$
>  <structure-notation>
O=C(Cn1cnc2c(cnn2-c2ccccc2)c1=O)Nc1ccc2ccccc2c1

>  <target-or-system>
human recombinant COX-2 (Homo sapiens)

>  <COX2 %inh (%)>
54.8

$$$$

----------
target-or-system: human recombinant COX-2 (Homo sapiens)
method-summary: In vitro COX-2 inhibition, fluorescent inhibitor screening assay kit
study-conditions: conc 1 (uM)
property: COX2 %inh (%)

>  <structure-notation>
O=C(Cn1cnc2c(cnn2-c2ccccc2)c1=O)Nc1ccc2ccccc2c1

>  <COX2 %inh [%]>
-103

$$$$

I: O=C(Cn1cnc2c(cnn2-c2ccccc2)c1=O)Nc1ccc([N+](=O)[O-])cc1
II: CC(=NO)c1ccc(NC(=O)Cn2cnc3c(cnn3-c3ccccc3)c2=O)cc1
III: O=C(Cn1cnc2c(cnn2-c2ccccc2)c1=O)N(c1ccccc1)c1ccccc1
Could you please order the items by COX2 %inh, going from the lowest number to the highest? Answer by naming the labels in the order asked.
II, I, III

----------
target-or-system: human recombinant COX-2 (Homo sapiens)
method-summary: In vitro COX-2 inhibition, fluorescent inhibitor screening assay kit
property: IC50 (nM)

>  <structure-notation>
O=C(Cn1cnc2c(cnn2-c2ccccc2)c1=O)N(c1ccccc1)c1ccccc1

>  <target-or-system>
human recombinant COX-2 (Homo sapiens)

>  <property>
IC50

>  <measurement>
266

$$$$
>  <structure-notation>
O=C(Cn1cnc2c(cnn2-c2ccccc2)c1=O)Nc1ccc([N+](=O)[O-])cc1

>  <target-or-system>
human recombinant COX-2 (Homo sapiens)

>  <property>
IC50

>  <measurement>
490

$$$$

a: O=C(Cn1cnc2c(cnn2-c2ccccc2)c1=O)Nc1ccc2ccccc2c1
b: CC(=NO)c1ccc(NC(=O)Cn2cnc3c(cnn3-c3ccccc3)c2=O)cc1
// compare measured IC50 between a and b ; output the lower one Mark your answer with the label of the selected entry.
a
(a: 398 nM, b: 2340 nM)

----------
target-or-system: COX-1 (Ovis aries, UniProt P05979)
Sequence (P05979 25-600): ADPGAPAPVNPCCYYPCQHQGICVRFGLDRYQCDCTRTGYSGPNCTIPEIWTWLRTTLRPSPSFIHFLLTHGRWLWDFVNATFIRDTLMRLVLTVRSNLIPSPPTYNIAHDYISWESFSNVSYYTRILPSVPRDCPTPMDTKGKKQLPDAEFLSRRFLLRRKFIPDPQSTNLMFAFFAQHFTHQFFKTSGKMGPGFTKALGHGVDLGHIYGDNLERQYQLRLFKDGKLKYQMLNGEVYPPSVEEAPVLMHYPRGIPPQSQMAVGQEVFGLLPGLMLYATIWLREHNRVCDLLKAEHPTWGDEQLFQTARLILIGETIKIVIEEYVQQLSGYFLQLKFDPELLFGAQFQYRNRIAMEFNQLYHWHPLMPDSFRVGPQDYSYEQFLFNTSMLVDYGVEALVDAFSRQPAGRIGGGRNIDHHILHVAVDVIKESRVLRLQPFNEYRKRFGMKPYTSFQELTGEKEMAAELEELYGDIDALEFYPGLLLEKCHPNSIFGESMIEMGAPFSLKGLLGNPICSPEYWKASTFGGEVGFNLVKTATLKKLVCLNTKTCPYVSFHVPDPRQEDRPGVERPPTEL
method-summary: In vitro COX-1 inhibition, fluorescent inhibitor screening assay kit
study-conditions: conc 0.01 (uM)
property: COX1 %inh (%)

>  <compound>
CC(=NO)c1ccc(NC(=O)Cn2cnc3c(cnn3-c3ccccc3)c2=O)cc1 [Compound 5m]

>  <target-or-system>
COX-1 (Ovis aries, UniProt P05979)

>  <unit-string>
%

>  <measurement>
0.27

$$$$

a: O=C(Cn1cnc2c(cnn2-c2ccccc2)c1=O)Nc1ccc([N+](=O)[O-])cc1 [Compound 5d]
b: O=C(Cn1cnc2c(cnn2-c2ccccc2)c1=O)N(c1ccccc1)c1ccccc1 [Compound 5k]
c: O=C(Cn1cnc2c(cnn2-c2ccccc2)c1=O)Nc1ccc2ccccc2c1 [Compound 5j]
Could you please order the items by COX1 %inh, going from the lowest number to the highest? Answer by naming the labels in the order asked.
a, b, c
(a: 0.25%, b: 0.72%, c: 1.32%)
